- Tested on: adenylate cyclase
- CONDITION_NOTES: relative potency in stimulating adenylate cyclase; measured as amides
Ends that are not written are not given here.
% Relative Activity listing for selected substances.

SUBSTANCE | ASSAY_TARGET | % Relative Activity
DSQGTFTSHYSKYLDSRRAQDFVQWLMNT-NH2 [compound 9, Asp^1His^9] | adenylate cyclase | <0.0009%
SQGTFTSNYSKYLDSRRAQDFVQWLMNT-NH2 [compound 13, des-His^1[Asn^9]] | adenylate cyclase | <0.0026%
SQGTFTSKYSKYLDSRRAQDFVQWLMNT-NH2 [compound 16, des - His^1 [Lys^9] glucagon amide] | adenylate cyclase | <0.0012%
HSQGTFTSYSKYLDSRRAQDFVQWLMNT-NH2 [compound 2, des-Asp^9] | adenylate cyclase | 1.04%
SQGTFTSHYSKYLDSRRAQDFVQWLMNT-NH2 [compound 17, des-His^1[His^9]] | adenylate cyclase | 0.011%
SQGTFTSFYSKYLDSRRAQDFVQWLMNT-NH2 [compound 19, des-His^1[Phe^9]] | adenylate cyclase | <0.0003%
SQGTFTSGYSKYLDSRRAQDFVQWLMNT-NH2 [compound 15, des - His^1 [Gly^9] glucagon amide] | adenylate cyclase | <0.006%
SQGTFTSYSKYLDSRRAQDFVQWLMNT-NH2 [compound 20, des-His^1des-Asp^9] | adenylate cyclase | <0.0022%
SQGTFTSQYSKYLDSRRAQDFVQWLMNT-NH2 [compound 14, des-His^1[Gln^9]] | adenylate cyclase | <0.003%

----------
- Test system: adenylate cyclase
- CONDITION_NOTES: negative logarithm of the antagonist concentration that reduces the response to 1 unit of agonist to that of 0.5 unit; measured as amides
Ends that are not written are not given here.

SUBSTANCE | pA2 Value
SQGTFTSQYSKYLDSRRAQDFVQWLMNT-NH2 [compound 14, des-His^1[Gln^9]] | 8.21
SQGTFTSGYSKYLDSRRAQDFVQWLMNT-NH2 [compound 15, des - His^1 [Gly^9] glucagon amide] | 6.24
DSQGTFTSHYSKYLDSRRAQDFVQWLMNT-NH2 [compound 9, Asp^1His^9] | 6.3
SQGTFTSHYSKYLDSRRAQDFVQWLMNT-NH2 [compound 17, des-His^1[His^9]] | 7.0
SQGTFTSFYSKYLDSRRAQDFVQWLMNT-NH2 [compound 19, des-His^1[Phe^9]] | 6.2
SQGTFTSKYSKYLDSRRAQDFVQWLMNT-NH2 [compound 16, des - His^1 [Lys^9] glucagon amide] | 7.35
SQGTFTSYSKYLDSRRAQDFVQWLMNT-NH2 [compound 20, des-His^1des-Asp^9] | 5.5
HSQGTFTSYSKYLDSRRAQDFVQWLMNT-NH2 [compound 2, des-Asp^9] | 7.2
SQGTFTSNYSKYLDSRRAQDFVQWLMNT-NH2 [compound 13, des-His^1[Asn^9]] | 6.52
